Experimental target: Prostaglandin G/H synthase 1 (Rattus norvegicus, UniProt Q63921); also: assay procedure not described here
Sequence (Q63921 whole entry): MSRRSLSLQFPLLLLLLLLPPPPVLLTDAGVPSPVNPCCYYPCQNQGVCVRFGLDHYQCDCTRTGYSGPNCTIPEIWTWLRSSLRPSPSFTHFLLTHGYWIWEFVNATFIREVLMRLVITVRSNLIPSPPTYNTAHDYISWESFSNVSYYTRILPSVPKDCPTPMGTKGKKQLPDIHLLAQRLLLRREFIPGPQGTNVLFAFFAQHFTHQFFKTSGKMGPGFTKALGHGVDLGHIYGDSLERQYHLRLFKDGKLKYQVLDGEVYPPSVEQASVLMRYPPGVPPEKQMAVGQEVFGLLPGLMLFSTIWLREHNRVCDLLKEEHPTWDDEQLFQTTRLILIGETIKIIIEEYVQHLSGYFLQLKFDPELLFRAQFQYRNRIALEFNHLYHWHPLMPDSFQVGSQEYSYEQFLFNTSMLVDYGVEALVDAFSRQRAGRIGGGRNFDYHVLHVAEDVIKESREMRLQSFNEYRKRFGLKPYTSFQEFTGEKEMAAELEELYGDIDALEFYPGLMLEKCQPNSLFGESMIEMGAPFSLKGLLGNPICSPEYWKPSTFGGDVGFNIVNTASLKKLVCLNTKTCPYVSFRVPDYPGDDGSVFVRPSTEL
Type: functional
Metric name: AC50

# example entries with known answers
Incoming: Reported AC50 for CC(C(=O)O)c1ccc(N2CC=CC2)c(Cl)c1 (configuration not stated) : what is it?
Outgoing: > 30 µM

Incoming: GET /values?readout=AC50&item= C=C1C[C@@H]2[C@H](CC[C@]3(C)C(=O)CC[C@@H]23)[C@@]2(C)C=CC(=O)C=C12
Outgoing: > 30 µM

Incoming: Requested field: AC50. Item: CCCC(CCC)C(=O)O[C@H]1C[C@H]2CC[C@@H](C1)[N+]2(C)C
Outgoing: > 30 µM

Incoming: I am curious: what AC50 value has been reported for NC[C@H]1O[C@H](O[C@H]2[C@H](O)[C@@H](O[C@H]3O[C@H](CO)[C@@H](O)[C@H](N)[C@H]3O)[C@H](N)C[C@@H]2N)[C@H](O)[C@@H](O)[C@@H]1O ?
Outgoing: > 10 µM

Incoming: Using the record for CN[C@@H]1[C@H](O)[C@H](NC)[C@H]2O[C@@]3(O)C(=O)C[C@@H](C)O[C@H]3O[C@@H]2[C@H]1O , report its AC50.
Outgoing: > 10 µM

Incoming: For the compound CC1=CC(=O)c2ccccc2C1=O , what AC50 is on record?
Outgoing: > 10 µM

Incoming: May I ask what AC50 has been recorded for NS(=O)(=O)c1cc2c(cc1Cl)NCNS2(=O)=O [HYDROCHLOROTHIAZIDE] ?
Outgoing: > 30 µM

Incoming: I'd like to know its AC50. The compound in question is O=C(OCCN1CCOCC1)c1cccnc1Nc1cccc(C(F)(F)F)c1 [MORNIFLUMATE]
Outgoing: > 30 µM

Incoming: Dear colleague, I am looking for the recorded AC50 of the following compound: CC(=O)c1ccc2c(c1)N(CCCN1CCN(CCO)CC1)c1ccccc1S2
Outgoing: > 30 µM

Incoming: # lookup: AC50 of CC(C)(Oc1ccc(C2CC2(Cl)Cl)cc1)C(=O)O (configuration not stated) [CIPROFIBRATE]
Outgoing: > 30 µM

Further cases:
Incoming: Recorded AC50 for CN(C)CCCN1c2ccccc2Sc2ccccc21 , please?
Outgoing: > 30 µM

Incoming: For the compound CC[C@H](C)C(=O)O[C@H]1C[C@H](O)C=C2C=C[C@H](C)[C@H](CC[C@@H](O)C[C@@H](O)CC(=O)O)[C@H]21 , what AC50 is on record?
Outgoing: > 30 µM

Incoming: AC50 for CCc1nn(CCCN2CCN(c3cccc(Cl)c3)CC2)c(=O)n1CCOc1ccccc1 ?
Outgoing: > 30 µM

Incoming: Return reported AC50; argument: CCCCN1CCCCC1C(=O)Nc1c(C)cccc1C (configuration not stated)
Outgoing: > 30 µM

Incoming: Give its AC50 value. Item: O=C(CCCCCCC(=O)Nc1ccccc1)NO
Outgoing: > 30 µM

Incoming: AC50 for COC(=O)[C@H]1[C@@H](OC(=O)c2ccccc2)C[C@@H]2CC[C@H]1N2C ?
Outgoing: > 30 µM

Incoming: Would you mind telling me what AC50 value was observed for CC(=O)O[C@@]12CO[C@@H]1C[C@H](O)[C@@]1(C)C(=O)[C@H](O)C3=C(C)[C@@H](OC(=O)[C@H](O)[C@@H](NC(=O)OC(C)(C)C)c4ccccc4)C[C@@](O)([C@@H](OC(=O)c4ccccc4)[C@H]21)C3(C)C [DOCETAXEL ANHYDROUS] ?
Outgoing: > 30 µM

FYI, the data here is from ChEMBL document CHEMBL5291721.
